- EXPERIMENT: DRUGMATRIX: Calcium Channel Type L, Benzothiazepine radioligand binding (ligand: [3H] Diltiazem)
- Type: cell membranes, Rattus norvegicus, Wistar, Brain, Membrane
- EXPERIMENTAL SETUP: Not Active = under 50% inhibition at 10 µM
OBSERVABLE: Ki

> print(dat)
                                   compound      result
1  CC(C(=O)O)c1ccc2oc(-c3ccc(Cl)cc3)nc2c1 (configuration not stated) [BENOXAPROFEN]  Not Active
2    CCN(CC)CC(=O)Nc1c(C)cccc1C [LIDOCAINE]  Not Active
3  CC(=O)[C@@]1(O)CC[C@H]2[C@@H]3CCC4=CC(=O)CC[C@]4(C)[C@H]3CC[C@@]21C [HYDROXYPROGESTERONE]  Not Active
4  CC(=O)[C@H]1[C@H](C#N)C[C@H]2[C@@H]3CC=C4C[C@@H](O)CC[C@]4(C)[C@H]3CC[C@@]21C [PREGNENOLONE CARBONITRILE]  Not Active
5  CCC(=O)O[C@]1(C(=O)CCl)[C@@H](C)C[C@H]2[C@@H]3CCC4=CC(=O)C=C[C@]4(C)[C@@]3(F)[C@@H](O)C[C@@]21C [CLOBETASOL PROPIONATE]  Not Active
6  CCCOc1ccc(C(=O)OCCN(CC)CC)cc1N [PROPARACAINE]  Not Active
7  O=C(N/N=C/c1ccc([N+](=O)[O-])o1)c1cc([N+](=O)[O-])cc([N+](=O)[O-])c1O [NIFURSOL]  Not Active
